These data points were gathered from ChEMBL document CHEMBL1132348.

So I've got a bunch of molecules here, and I need their IC50 values.
Assay: Inhibitory activity against HIV-I mediated cytopathic effect in MT-2 cells
Type: functional, cell-based
Conditions: Human immunodeficiency virus 1, MT2

Study these solved cases before continuing.
CC[C@H]1CN2CC[C@H]1C[C@@H]2[C@@H](OC(=O)c1ccccc1Cl)c1ccnc2ccc(OC)cc12    > 100 µg/mL
COC(=O)c1cc(C(=O)OC)cc(N(C(=O)Nc2ccc(Cl)c(Cl)c2)C(C)c2nc3ccccc3c(=O)n2Cc2ccccc2)c1 (configuration not stated)    > 100 µg/mL
COc1ccc(S(=O)(=O)O)cc1/N=N/c1c(S(=O)(=O)O)cc2cc(Nc3nc(Nc4ccccc4)nc(Nc4cc(C)c(/N=N/c5cc(S(=O)(=O)O)cc6cc(S(=O)(=O)O)cc(O)c56)cc4OC)n3)ccc2c1O    8.29 µg/mL
Cc1ccc(C(=O)Nc2cccc(C(=O)N/N=C/c3ccc(Br)cc3)c2)cc1    > 100 µg/mL
O=P(CCP(c1ccccc1)c1ccccc1)(c1ccccc1)c1ccccc1    > 100 µg/mL

Each molecule below has a reported value. Please supply its IC50.
1. Cc1ccc(N(C(=O)Nc2ccccc2)C(C)c2nc(O)c3ccccc3n2)c(C)c1 (configuration not stated)
2. Cc1ccc(/N=N/c2c(S(=O)(=O)O)cc3cc(S(=O)(=O)O)cc(Nc4nc(Cl)nc(N(C)c5ccccc5)n4)c3c2O)c(S(=O)(=O)O)c1

["> 100 µg/mL", "30.8 µg/mL"]
